B1: library; numbered along this chain (parent)
chain: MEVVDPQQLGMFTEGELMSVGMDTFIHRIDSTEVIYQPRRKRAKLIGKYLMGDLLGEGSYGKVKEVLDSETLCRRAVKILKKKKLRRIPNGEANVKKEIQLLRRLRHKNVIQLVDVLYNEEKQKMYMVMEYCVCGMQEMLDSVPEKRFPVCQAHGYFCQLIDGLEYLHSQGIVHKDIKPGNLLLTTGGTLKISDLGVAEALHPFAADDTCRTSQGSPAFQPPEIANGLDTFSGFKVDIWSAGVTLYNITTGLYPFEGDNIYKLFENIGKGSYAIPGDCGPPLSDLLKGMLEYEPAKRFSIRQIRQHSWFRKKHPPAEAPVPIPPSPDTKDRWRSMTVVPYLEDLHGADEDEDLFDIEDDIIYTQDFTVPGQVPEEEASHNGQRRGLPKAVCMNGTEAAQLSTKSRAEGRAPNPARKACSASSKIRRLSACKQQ

Variants of: B1
Assay: STK11 functional score (HeLa growth suppression), rescaled enrichment; synonymous median = 1, nonsense median = 0 (normalised score)
Settings: with HeLa; variant type: missense
# cutoff 1 applies to STK11 functional score; >= gives label 1, < gives label 0

[[record]]
variant_annotation = "I248M"
class_name = "label 1"

[[record]]
variant_annotation = "Y131L"
class_name = "label 1"

[[record]]
variant_annotation = "G257Y"
class_name = "label 1"

[[record]]
variant_annotation = "K178R"
class_name = "label 0"

[[record]]
variant_annotation = "G251Y"
class_name = "label 0"

[[record]]
variant_annotation = "K388L"
class_name = "label 0"

[[record]]
variant_annotation = "R103A"
class_name = "label 1"

[[record]]
variant_annotation = "Y126P"
class_name = "label 0"

[[record]]
variant_annotation = "L290G"
class_name = "label 0"

[[record]]
variant_annotation = "P275R"
class_name = "label 1"

[[record]]
variant_annotation = "I238C"
class_name = "label 1"

[[record]]
variant_annotation = "Q152S"
class_name = "label 0"

[[record]]
variant_annotation = "P373E"
class_name = "label 1"

[[record]]
variant_annotation = "E349L"
class_name = "label 1"

[[record]]
variant_annotation = "G215Y"
class_name = "label 1"

[[record]]
variant_annotation = "V3L"
class_name = "label 0"

[[record]]
variant_annotation = "T402D"
class_name = "label 1"

[[record]]
variant_annotation = "A316F"
class_name = "label 1"

[[record]]
variant_annotation = "L167N"
class_name = "label 0"

[[record]]
variant_annotation = "R301V"
class_name = "label 1"

[[record]]
variant_annotation = "L182A"
class_name = "label 0"


Value source: the supplement of paper PMC12338614
